- targetEntity: Tryptophan 2,3-dioxygenase (Homo sapiens, UniProt P48775)
- Sequence (P48775 whole entry): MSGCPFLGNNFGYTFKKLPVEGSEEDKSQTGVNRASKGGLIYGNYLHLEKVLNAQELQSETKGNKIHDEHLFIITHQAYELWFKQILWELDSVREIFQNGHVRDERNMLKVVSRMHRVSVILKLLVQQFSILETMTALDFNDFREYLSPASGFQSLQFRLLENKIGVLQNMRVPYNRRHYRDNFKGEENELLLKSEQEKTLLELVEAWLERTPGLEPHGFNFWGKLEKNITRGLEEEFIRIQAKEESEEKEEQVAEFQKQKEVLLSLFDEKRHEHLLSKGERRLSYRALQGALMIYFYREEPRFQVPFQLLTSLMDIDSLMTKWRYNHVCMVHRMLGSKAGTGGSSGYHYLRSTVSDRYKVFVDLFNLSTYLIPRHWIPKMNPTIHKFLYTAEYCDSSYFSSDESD
- protocolNotes: Inhibition of human TDO2 expressed in Escherichia coli BL21-DE3 rosetta cells at pH 6.5 potassium phosphate buffer using L-tryptophan as substrate measured after 15 mins
Could you mark each record 1 if its IC50 falls strictly under 4 µM, and -1 if it equals or exceeds it?

>>> cat("c1ccc2c(-c3cnc4n[se]nc4c3)c[nH]c2c1")
-1
>>> cat("c1ccc2c(-c3cnc4nsnc4c3)c[nH]c2c1")
-1
>>> cat("c1ccc2c(-c3ccc4n[se]nc4c3)c[nH]c2c1")
1
>>> cat("c1ccc2c(-c3ccc4nsnc4c3)c[nH]c2c1")
1
>>> cat("c1ccc2c(-c3ccc4nonc4c3)c[nH]c2c1")
1

* * *

- targetEntity: UniProt:P48775
- protocolNotes: Inhibition of human TDO2 expressed in mouse P815B cells using L-tryptophan as substrate incubated for 7 hrs by UPLC analysis
- Assay type: cell-based
Below: a set of entries, each annotated with reported IC50.
experimentalEndpoint: IC50 (nM)

>>> reportedvalue("c1ccc2c(-c3cnc4n[se]nc4c3)c[nH]c2c1")
171
>>> reportedvalue("c1ccc2c(-c3ccc4nonc4c3)c[nH]c2c1")
51
>>> reportedvalue("c1ccc2c(-c3cnc4nsnc4c3)c[nH]c2c1")
82

Attribution: ChEMBL document CHEMBL5143514
